# TEST_SUMMARY: NCI Yeast Anticancer Drug Screen. Data for the sgs1 mgt1 strain (AID 161);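 also: 0% = growth of cultures given vehicle only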
# MEASUREMENT_SETUP: S. cerevisiae sgs1 mgt1 strain, at 5.0 µM (retest, dose inferred, filed as 0.5), active compounds read high
Compounds without any hit were thinned out: in the full panel of roughly 79,000, 15% have a hit.
// values below are reported growth inhibition
Express your answer in %, writing the number without its unit.

COMPOUND: NCCOB1c2ccccc2Cc2ccccc21
growth inhibition / %: -3

*Q* Entry "NC(=S)N/N=C1\CCCCc2ccccc21" has what growth inhibition?
*A* 4

*Q* Entry "O=S1(=O)CCN(c2ccccc2CC(c2c[nH]c3ccccc23)c2c[nH]c3ccccc23)CC1" has what growth inhibition?
*A* 3

*Q* Entry CC1SC2(C(=O)Nc3ccc(Br)cc32)N(c2ccc(Cl)cc2)C1=O (stereo not drawn) has what growth inhibition?
*A* -2

*Q* Entry "CCOC(=O)C(=N\Nc1c(C)cccc1C)/C(C)=N\NC(N)=S" has what growth inhibition?
*A* 7

*Q* Entry CC(C(=O)c1ccc(Cl)cc1)C1OC(=O)C(Cl)=C1Cl (stereo not drawn) has what growth inhibition?
*A* 43

*Q* Entry "CSc1cc(N)nc(N)n1" has what growth inhibition?
*A* 4

meta.source: PubChem BioAssay (NCI)
